Tested on: C2C12 skeletal myotubes
Assay: Total cellular protein content in C2C12 skeletal myotubes (BCA)
Assay type: cell-based, Mouse
Conditions: Mus musculus, C2C12; 0.1 μM, 48 h incubation, vs vehicle (0.1% DMSO)
Experimental Readout: Percent change in total protein at 0.1 µM (%)
Output spec: scalar in %, unitless text.

Please review the following examples before continuing.
Return value of Percent change in total protein at 0.1 µM for input CC(=O)NC[C@@H](C)CCC1=C(C)[C@H]2[C@H](C[C@H]3[C@@H]4CC[C@H]5C[C@@H](OC(C)=O)CC[C@]5(C)[C@H]4CC[C@@]32C)O1 [Example 1] , no commentary. 5.6

Name the recorded Percent change in total protein at 0.1 µM of the compound listed here: CC1=C(CC[C@H](C)CN(C)C)O[C@H]2C[C@H]3[C@@H]4CC[C@H]5C[C@@H](O)CC[C@]5(C)[C@H]4CC[C@]3(C)[C@@H]12 [Example 8] 5

Tell me measured Percent change in total protein at 0.1 µM for CC1=C(CC[C@H](C)CNC(=O)OC(C)(C)C)O[C@H]2C[C@H]3[C@@H]4CC[C@H]5CC(NCCO)CC[C@]5(C)[C@H]4CC[C@]3(C)[C@@H]12 (some centres unmarked) [Example 10] please. 10.6

Quote Percent change in total protein at 0.1 µM reported for CC1=C(CC[C@H](C)CNC(=O)OC(C)(C)C)O[C@H]2C[C@H]3[C@@H]4CC[C@H]5C[C@@H](O)CC[C@]5(C)[C@H]4CC[C@]3(C)[C@@H]12 [Example 2] please. 3.2

# ---- query compound ----
Provide Percent change in total protein at 0.1 µM value for the following compound: CC1=C(CC[C@H](C)CNC(C)C)O[C@H]2C[C@H]3[C@@H]4CC[C@H]5C[C@@H](O)CC[C@]5(C)[C@H]4CC[C@]3(C)[C@@H]12 [Example 7] 0.5
